Settings: 333.15 K; 101.33 kPa; Liquid; Vibrating tube method
OUTCOME_MEASURE: mass density (kg/m3)
The response must be a number in kg/m3 with no trailing unit.

Below, 4 molecules whose answers are already recorded.
MOLECULE	mass density, kg/m3
CCCCCCCCCCCCCC(C)C [2-methylpentadecane]	747
CCC(C)CCC(C)CC (centres undefined) [3,6-dimethyloctane]	707.6
CCCCCCCCC(C)CC (centres undefined) [3-methylundecane]	721.9
CCCCCCCC(C)C [2-methylnonane]	696

Task item: Give the measured mass density for CCCCCCCCC(C)C [2-methyldecane]
Reply: 708.1

Task item: Give the measured mass density for CCCCC(C)CCC (centres undefined) [4-methyloctane]
Reply: 687.5

Task item: Give the measured mass density for CCC(C)CC(C)CC (centres undefined) [3,5-dimethylheptane]
Reply: 694.5

Task item: Give the measured mass density for CCCCCCCCCC(C)CCCCCC (centres undefined) [7-methylhexadecane]
Reply: 753.1

Task item: Give the measured mass density for CCCCCCC(C)C [2-methyloctane]
Reply: 683.3

---

Conditions: 353.15 K; 101.33 kPa; Liquid; Concentric cylinders viscometry
Recorded viscosity, one value per entry.
The response must be a number in mPa·s with no trailing unit.

Below, 4 compounds whose answers are already recorded.
COMPOUND	MEASUREMENT
CCCCCCC(C)C	0.345
CCCCCCCC(C)C	0.428
CCC(C)CCC(C)CC (centres undefined)	0.409
CCCCCCCCC(C)CC (centres undefined)	0.605

Task item: Give the measured viscosity for `CCCCCCCCC(C)C`
Reply: 0.514

Task item: Give the measured viscosity for CCCCCCCCCC(C)CCCCCC (centres undefined)
Reply: 1.21

Task item: Give the measured viscosity for CCCCC(C)CCC (centres undefined)
Reply: 0.329

Task item: Give the measured viscosity for CCC(C)CC(C)CC (centres undefined)
Reply: 0.35

Task item: Give the measured viscosity for `CCCCCCCCCCCCCC(C)C`
Reply: 1.14

---

Conditions: 293.15 K; 101.33 kPa; Liquid; Pulse-echo method
OUTCOME_MEASURE: speed of sound (m/s)
The response must be a number in m/s with no trailing unit.

Below, 2 molecules whose answers are already recorded.
MOLECULE	speed of sound / m/s
CCCCCCCCCC(C)CCCCCC (centres undefined) [7-methylhexadecane]	1354.9
CCCCCCCCCCCCCC(C)C [2-methylpentadecane]	1341

Task item: Give the measured speed of sound for CCC(C)CCC(C)CC (centres undefined) [3,6-dimethyloctane]
Reply: 1236.7

Task item: Give the measured speed of sound for CCC(C)CC(C)CC (centres undefined) [3,5-dimethylheptane]
Reply: 1203.3

Task item: Give the measured speed of sound for CCCCCCCCC(C)CC (centres undefined) [3-methylundecane]
Reply: 1291

Task item: Give the measured speed of sound for CCCCC(C)CCC (centres undefined) [4-methyloctane]
Reply: 1213

Task item: Give the measured speed of sound for CCCCCCCC(C)C [2-methylnonane]
Reply: 1231.1

Task item: Give the measured speed of sound for CCCCCCCCC(C)C [2-methyldecane]
Reply: 1256.2

Task item: Give the measured speed of sound for CCCCCCC(C)C [2-methyloctane]
Reply: 1201.3

---

Recorded viscosity, one value per entry.
Conditions: 293.15 K; 101.33 kPa; Liquid; Concentric cylinders viscometry
Numbers after ± are expanded uncertainties.
Give the figure together with its unit, number first.

Below, 4 compounds whose answers are already recorded.
COMPOUND	MEASUREMENT
CCCCCCCC(C)C	0.887 ± 0.02 mPa·s
CCCCCCCCCCCCCC(C)C	3.52 ± 0.24 mPa·s
CCCCC(C)CCC (centres undefined)	0.628 ± 0.021 mPa·s
CCCCCCCCCC(C)CCCCCC (centres undefined)	4 ± 0.4 mPa·s

Task item: Give the measured viscosity for `CCCCCCC(C)C`
Reply: 0.676 ± 0.015 mPa·s

Task item: Give the measured viscosity for CCC(C)CCC(C)CC (centres undefined)
Reply: 0.846 ± 0.018 mPa·s
